Target: T1, rat VEGF-A (rat, UniProt P16612-2 27-190, limits assumed)
T1 construct: also called rVEGF
T1 sequence (looked up): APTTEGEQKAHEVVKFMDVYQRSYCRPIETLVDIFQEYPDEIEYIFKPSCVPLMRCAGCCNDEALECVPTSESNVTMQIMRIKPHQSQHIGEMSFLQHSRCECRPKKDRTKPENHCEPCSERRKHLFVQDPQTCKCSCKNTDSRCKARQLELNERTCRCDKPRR
Experiment: SPR
measured.parameter: Kd

# binder, result
data = [
    ("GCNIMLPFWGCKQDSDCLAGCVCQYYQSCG (designed binder, also called EM54) [VEGF_CKP9.54]", "176 nM"),
    ("GCDVMQPYWGCGPDIDCLAGCVCHWYNSCG (designed binder, also called L2.9.63.12) [VEGF_CKP9.63.12]", "5.74 nM"),
    ("GCDVMQPYWGCKQDSDCLAGCVCHWYNSCG (designed binder, also called EM63) [VEGF_CKP9.63]", "524 nM"),
    ("GCNIMLPFWGCGRDFECLAGCVCQYYQSCG (designed binder) [VEGF_CKP9.54.90]", "0.9 nM"),
]
